Reported pIC50 by item:
Target: SPM-1 (Pseudomonas aeruginosa)
Sequence (Q8G9Q0 entry or part of it): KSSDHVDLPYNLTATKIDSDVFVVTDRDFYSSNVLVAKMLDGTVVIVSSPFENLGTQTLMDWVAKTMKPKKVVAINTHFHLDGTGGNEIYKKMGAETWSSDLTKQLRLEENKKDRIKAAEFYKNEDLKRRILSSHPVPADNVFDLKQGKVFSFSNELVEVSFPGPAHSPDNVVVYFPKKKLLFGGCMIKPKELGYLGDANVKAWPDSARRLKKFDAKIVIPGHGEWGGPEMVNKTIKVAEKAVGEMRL
Experiment: IC50, inhibition of cephalothin hydrolysis by crude extract
Conditions: SPM-1; 100 μM cephalothin, pH 7.0
pIC50: −log10 of the molar value.
parameter: pIC50

smiles entry: NCCN[C@H]1CC[C@H](CC(=O)N[C@H]2Cc3cccc(C(=O)O)c3OB2O)CC1
tested system: SPM-1 (Pseudomonas aeruginosa)
qualifying sign: =
measured result: 5.57

smiles entry: O=C(O)[C@@H](S)[C@@H](S)C(=O)O
tested system: SPM-1 (Pseudomonas aeruginosa)
qualifying sign: <
measured result: 3.00

----------
Target: NDM-1 (Klebsiella pneumoniae, UniProt C7C422)
Sequence (C7C422 29-270 limits assumed): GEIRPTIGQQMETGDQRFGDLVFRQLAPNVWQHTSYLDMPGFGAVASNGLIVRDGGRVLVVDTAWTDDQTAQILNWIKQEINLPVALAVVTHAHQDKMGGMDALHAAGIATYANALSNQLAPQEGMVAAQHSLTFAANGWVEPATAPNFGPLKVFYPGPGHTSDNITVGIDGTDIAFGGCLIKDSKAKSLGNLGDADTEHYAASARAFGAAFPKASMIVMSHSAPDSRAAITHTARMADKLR
Experiment: IC50, inhibition of cephalothin hydrolysis by crude extract
Details: 100 μM cephalothin, pH 7.0

smiles entry: O=C(O)[C@@H](S)[C@@H](S)C(=O)O
IC50: > 1 mM
